Tested system: T1, ZIKV-VLP (Native Antigen Inc.) (Zika virus)
T1 construct: also called Zika VLP; ZVLP
Protocol text: BLI binning on ZIKV-VLP; 1st mAb: 260-2
Parameter measured: response of 2nd mAb
The answer should be a number; do not append a unit.

Tell me the measured response of 2nd mAb of anti-ZIKV antibody 306-2 (antibody, V domains shown) VH: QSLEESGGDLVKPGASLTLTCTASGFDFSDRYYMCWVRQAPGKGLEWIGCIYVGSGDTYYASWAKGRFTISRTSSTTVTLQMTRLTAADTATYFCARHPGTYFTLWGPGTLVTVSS VL: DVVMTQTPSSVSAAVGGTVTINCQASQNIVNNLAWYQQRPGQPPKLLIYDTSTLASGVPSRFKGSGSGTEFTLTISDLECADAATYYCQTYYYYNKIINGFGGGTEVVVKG , please.
0
